- experimental.protocol: Permeation across cultured human respiratory epithelium (EpiAir tissue), apical-to-basolateral Papp
- particulars: human, pH 7.4, Papp, Treatment 1: Compound B assayed with controls; Rep 2
measurement.label: Papp at 120 min (×10⁻⁶ cm/s)

compound: CNCC/C=C/c1cccnc1 [Compound B]
measurement.label: Papp at 120 min
meas.value: 18

###

- experimental.protocol: Permeation across cultured human respiratory epithelium (EpiAir tissue), apical-to-basolateral Papp
- particulars: human, pH 7.4, Papp, Treatment 1: Compound B assayed with controls; Rep 1
measurement.label: Papp at 120 min (×10⁻⁶ cm/s)

smiles.entry: CNCC/C=C/c1cccnc1
unit.symbol: ×10⁻⁶ cm/s
meas.value: 18.5

###

- experimental.protocol: in vitro
- particulars: human, pH 7.4, Papp

molecule: CN[C@@H](C)C/C=C/c1cncc(OC)c1 [Compound A]
Papp at 120 min / ×10⁻⁶ cm/s: 25.1

###

- experimental.protocol: Permeation across cultured human respiratory epithelium (EpiAir tissue), apical-to-basolateral Papp
- particulars: human, pH 7.4, Papp, Treatment 3: MAO substrate Phenylethylamine assayed with controls; Rep 2
- Experimental: An in vitro model of MatTek EpiAir® tissue was used for the permeability assessment of the test articles and control compounds. […] The Lucifer Yellow concentration in the receiver samples was measured using a FluoStar fluorescence plate reader (BMG Laboratories, Durham, N.C.). The apparent permeability coefficient, Papp, was calculated as follows: […]

compound: NCCc1ccccc1 [Phenylethylamine]
Papp at 120 min (×10⁻⁶ cm/s): 18.9

###

- experimental.protocol: Permeation across cultured human respiratory epithelium (EpiAir tissue), apical-to-basolateral Papp
- particulars: human, pH 7.4, Papp, Treatment 4: Phenylethylamine assayed with controls + MAO inhibitor Pargyline; Average ± STD
measurement.label: Papp at 120 min (×10⁻⁶ cm/s)

smiles.entry: NCCc1ccccc1
measurement.label: Papp at 120 min
meas.value: 35.2

###

- experimental.protocol: Brain-to-plasma ratio of Compound C after oral gavage or intranasal administration (Example 5)
- Type: in vivo, Sprague-Dawley rats
- particulars: Sprague-Dawley, rat, plasma, po, 5 mg/kg, oral gavage 5 mg/kg; 30 minutes; read-out: Average plasma levels
measurement.label: concentration at 30 min

smiles.entry: CN[C@@H](C)C/C=C/c1cncc(OC(C)C)c1
measurement.label: concentration at 30 min
meas.value: 578 ng/mL

###

- experimental.protocol: Brain-to-plasma ratio of Compound C after oral gavage or intranasal administration (Example 5)
- Assay type: in vivo, Sprague-Dawley rats
- particulars: Sprague-Dawley, rat, brain/plasma, inhaled or intranasal, 1 mg/kg, 1 mg/kg intranasal dose; 10 min; read-out: Brain-to-Plasma Ratio

smiles.entry: CN[C@@H](C)C/C=C/c1cncc(OC(C)C)c1
Kp at […]: 2.7

###

- experimental.protocol: Brain-to-plasma ratio of Compound C after oral gavage or intranasal administration (Example 5)
- Type: in vivo, Sprague-Dawley rats
- particulars: Sprague-Dawley, rat, brain/plasma, po, 5 mg/kg, 5 mg/kg oral dose; 60 min; read-out: Brain-to-Plasma Ratio
- Description: Three treatment groups of nine rats each were used (see Study Design, Table 9). […] The animals were housed up to three per cage and identified by cage labels. A single room was used for this study. […] Food was withheld from the animals for a minimum of 12 hours before the study and during the study, and was returned at 4 hours post-dose. […] Brain samples were thawed and weighed. […] After homogenation, the volume of each sample was recorded and the samples were frozen at −80° C. until analysis. […]
measurement.label: Kp at 1 h

smiles.entry: CN[C@@H](C)C/C=C/c1cncc(OC(C)C)c1
meas.value: 3.89

###

- experimental.protocol: Brain-to-plasma ratio of Compound C after oral gavage or intranasal administration (Example 5)
- Format: in vivo, Sprague-Dawley rats
- particulars: Sprague-Dawley, rat, brain, po, 5 mg/kg, oral gavage 5 mg/kg; 10 minutes; read-out: Average brain levels

smiles.entry: CN[C@@H](C)C/C=C/c1cncc(OC(C)C)c1
unit.symbol: ng/g
concentration at 10 min: 225

###

- experimental.protocol: Brain-to-plasma ratio after oral gavage or intranasal administration (Example 4)
- Format: in vivo, Sprague-Dawley rats
- particulars: Sprague-Dawley, rat, in vivo, po, 5 mg/kg, Average brain-to-plasma ratio

compound: CN[C@@H](C)C/C=C/c1cncc(OC)c1 [Compound A]
Kp at […]: 1.75

###

- experimental.protocol: Brain-to-plasma ratio of Compound C after oral gavage or intranasal administration (Example 5)
- Type: in vivo, Sprague-Dawley rats
- particulars: Sprague-Dawley, rat, brain/plasma, inhaled or intranasal, 5 mg/kg, 5 mg/kg intranasal dose; 10 min; read-out: Brain-to-Plasma Ratio
- Description: Three treatment groups of nine rats each were used (see Study Design, Table 9). […] The animals were housed up to three per cage and identified by cage labels. A single room was used for this study. […] Food was withheld from the animals for a minimum of 12 hours before the study and during the study, and was returned at 4 hours post-dose. […] Brain samples were thawed and weighed. […] After homogenation, the volume of each sample was recorded and the samples were frozen at −80° C. until analysis. […]

smiles.entry: CN[C@@H](C)C/C=C/c1cncc(OC(C)C)c1
Kp at […]: 1.42

###

- experimental.protocol: Permeation across cultured human respiratory epithelium (EpiAir tissue), apical-to-basolateral Papp
- particulars: human, pH 7.4, Papp, Treatment 4: Phenylethylamine assayed with controls + MAO inhibitor Pargyline; Rep 2
- Procedure: An in vitro model of MatTek EpiAir® tissue was used for the permeability assessment of the test articles and control compounds. […] The Lucifer Yellow concentration in the receiver samples was measured using a FluoStar fluorescence plate reader (BMG Laboratories, Durham, N.C.). The apparent permeability coefficient, Papp, was calculated as follows: […]
measurement.label: Papp at 120 min (×10⁻⁶ cm/s)

smiles.entry: NCCc1ccccc1
meas.value: 36.3

###

- experimental.protocol: Brain-to-plasma ratio of Compound C after oral gavage or intranasal administration (Example 5)
- Format: in vivo, Sprague-Dawley rats
- particulars: Sprague-Dawley, rat, brain, other: intranasal, 1 mg/kg, 1 mg/kg intranasal dose; 30 min; read-out: Brain Conc.

compound: CN[C@@H](C)C/C=C/c1cncc(OC(C)C)c1 [Compound C]
unit.symbol: ng/g
concentration at 30 min: 219

###

- experimental.protocol: Brain-to-plasma ratio of Compound C after oral gavage or intranasal administration (Example 5)
- Type: in vivo, Sprague-Dawley rats
- particulars: Sprague-Dawley, rat, plasma, other: intranasal, 1 mg/kg, intranasal 1 mg/kg; 30 minutes; read-out: Average plasma levels

compound: CN[C@@H](C)C/C=C/c1cncc(OC(C)C)c1 [Compound C]
concentration at 30 min: 208 ng/mL

###

- experimental.protocol: Brain-to-plasma ratio after oral gavage or intranasal administration (Example 4)
- Assay type: in vivo, Sprague-Dawley rats
- particulars: Sprague-Dawley, rat, in vivo, 10 mg/kg, Mean Ratio (brain-to-plasma)
measurement.label: Kp at 1 h

compound: CN[C@@H](C)C/C=C/c1cncc(OC)c1 [Compound A]
measurement.label: Kp at 1 h
meas.value: 0.032

###

- experimental.protocol: Brain-to-plasma ratio of Compound C after oral gavage or intranasal administration (Example 5)
- Format: in vivo, Sprague-Dawley rats
- particulars: Sprague-Dawley, rat, brain, oral, 5 mg/kg, 5 mg/kg oral dose; 10 min; read-out: Brain Conc.

smiles.entry: CN[C@@H](C)C/C=C/c1cncc(OC(C)C)c1
concentration at 10 min (ng/g): 227

###

- experimental.protocol: Brain-to-plasma ratio of Compound C after oral gavage or intranasal administration (Example 5)
- Assay type: in vivo, Sprague-Dawley rats
- particulars: Sprague-Dawley, rat, plasma, other: intranasal, 1 mg/kg, intranasal 1 mg/kg; 10 minutes; read-out: Average plasma levels

smiles.entry: CN[C@@H](C)C/C=C/c1cncc(OC(C)C)c1
unit.symbol: ng/mL
concentration at 10 min: 250

###

- experimental.protocol: Brain-to-plasma ratio of Compound C after oral gavage or intranasal administration (Example 5)
- Type: in vivo, Sprague-Dawley rats
- particulars: Sprague-Dawley, rat, brain, other: intranasal, 1 mg/kg, 1 mg/kg intranasal dose; 60 min; read-out: Brain Conc.

molecule: CN[C@@H](C)C/C=C/c1cncc(OC(C)C)c1 [Compound C]
concentration at 60 min: 89 ng/g

###

- experimental.protocol: Brain-to-plasma ratio after oral gavage or intranasal administration (Example 4)
- Type: in vivo, Sprague-Dawley rats
- particulars: Sprague-Dawley, rat, in vivo, 10 mg/kg, Group 3; OG, 10 mg/kg; 10 min; read-out: Plasma Conc.

smiles.entry: CN[C@@H](C)C/C=C/c1cncc(OC)c1
concentration at 10 min, µg/mL: 0.313

###

- experimental.protocol: Brain-to-plasma ratio after oral gavage or intranasal administration (Example 4)
- Type: in vivo, Sprague-Dawley rats
- particulars: Sprague-Dawley, rat, in vivo, po, 5 mg/kg, Average brain-to-plasma ratio
measurement.label: Kp at 0.5 h

compound: CN[C@@H](C)C/C=C/c1cncc(OC)c1 [Compound A]
meas.value: 2.37
